Tested on: LPS triggered IL-10 secretion in monocytes
Assay: Monocytes assay: LPS-triggered IL-10 (ELISA)
Assay type: cell-based, human
Conditions: Homo sapiens, Monocyte, LPS-triggered IL-10 induction, median maximal fold change vs LPS only, read-out: IL-10 FCmax median
maximal fold induction reference

Some solved entries appear below for comparison.
{"compound": "COc1cc(-c2cnc3cc(C(C)(C#N)CO)ccn23)cc(OC(F)F)c1C(=O)NC1CC1 (stereo not shown) [Cpd 176]", "maximal fold induction": "1.5 to 4.5"}
{"compound": "COc1cc(-c2cnc3cc(C(C)(C)O)ccn23)cc(OC(F)F)c1C(=O)NC1CC1 [Cpd 35]", "maximal fold induction": "1.5 to 4.5"}
{"compound": "COc1cc(-c2cnc3cc(C(F)(F)CO)ccn23)cc(OC(F)F)c1C(=O)NC1CC1 [Cpd 136]", "maximal fold induction": "1.5 to 4.5"}

Looking up COc1cc(-c2cnc3cc(C(C)(C)C#N)ccn23)cc(OC(F)F)c1C(=O)NC1CC1 [Cpd 19] , I found its maximal fold induction recorded as < 1.5

----------
Tested on: LPS triggered IL-10 secretion in monocytes
Assay: Monocytes assay: LPS-triggered IL-10 (ELISA)
Assay type: cell-based, human
Conditions: Homo sapiens, Monocyte, LPS-triggered IL-10 induction, median maximal fold change vs LPS only, read-out: IL-10 FCmax median
measured.quantity: maximal fold induction

Example entries and their recorded answers appear below.
{"compound": "COc1cc(-c2cnc3cc(C(C)(C)C#N)ccn23)cc(OC(F)F)c1C(=O)NCC1CC1 [Cpd 39]", "observed.measurement": "1.5 to 4.5"}
{"compound": "COc1cc(-c2cnc3cc(C4(C#N)CCOC4)ccn23)cc(OC(F)F)c1C(=O)NC1CC1 (centres unmarked) [Cpd 123]", "observed.measurement": "1.5 to 4.5"}
{"compound": "COc1cc(-c2cnc3cc(C4COC4)ccn23)cc(OC(F)F)c1C(=O)N[C@@H]1C[C@@H]1F [Cpd 206]", "observed.measurement": "1.5 to 4.5"}
{"compound": "COc1cc(-c2cnc3cc(C4CCCN4C)ccn23)cc(OC(F)F)c1C(=O)NC1CC1 (centres unmarked) [Cpd 171]", "observed.measurement": "1.5 to 4.5"}
{"compound": "COc1cc(-c2cnn3cc(C(C)(C)N)ccc23)cc(OC(F)F)c1C(=O)N[C@@H]1C[C@@H]1F [Cpd 256]", "observed.measurement": "< 1.5"}
{"compound": "CCC(C)(O)c1ccn2c(-c3cc(OC)c(C(=O)NC4CC4)c(OC(F)F)c3)cnc2c1 (centres unmarked) [Cpd 137]", "observed.measurement": "< 1.5"}
{"compound": "[2H]C([2H])([2H])C(C#N)(c1ccn2c(-c3cc(OC)c(C(=O)NC4CC4)c(OC(F)F)c3)cnc2c1)C([2H])([2H])[2H] [Cpd 230]", "observed.measurement": "< 1.5"}

Next compound, please.
Data point: COc1cc(-c2cnc3cc(C4CCC4)c(F)cn23)cc(OC(F)F)c1C(=O)NC1CC1 [Cpd 168] ; maximal fold induction = 1.5 to 4.5

----------
Target: SIK3 (Homo sapiens, UniProt Q9Y2K2)
Construct: purchased SignalChem S12-11G-100
Sequence (Q9Y2K2 59-365 limits assumed): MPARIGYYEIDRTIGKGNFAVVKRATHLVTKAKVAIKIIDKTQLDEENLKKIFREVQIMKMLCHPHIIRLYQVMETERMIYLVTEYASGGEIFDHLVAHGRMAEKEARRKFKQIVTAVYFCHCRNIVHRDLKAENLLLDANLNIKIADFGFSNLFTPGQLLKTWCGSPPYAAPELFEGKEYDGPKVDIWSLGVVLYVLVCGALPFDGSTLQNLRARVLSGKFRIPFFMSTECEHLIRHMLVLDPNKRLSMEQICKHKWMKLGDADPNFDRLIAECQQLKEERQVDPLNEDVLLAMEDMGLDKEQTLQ
Experiment: ADP-Glo kinase assay, SIK3
Type: biochemical
pIC50: −log10 of the molar value.
measured.quantity: pIC50

# count of solved cases: 7
{"compound": "COc1cc(-c2cnc3cc(C4COCCN4)ccn23)cc(OC(F)F)c1C(=O)NC1CC1 (centres unmarked)", "pIC50": "7.00 to 8.00"}
{"compound": "C=CCC(C#N)(CC=C)c1ccn2c(-c3cc(OC)c(C(=O)NC4CC4)c(OC(F)F)c3)cnc2c1", "pIC50": "7.00 to 8.00"}
{"compound": "COc1cc(-c2cnc3cc(C(C)(C)C#N)ccn23)cnc1C(=O)NCC(F)(F)F", "pIC50": "6.30 to 7.00"}
{"compound": "COc1cc(-c2cnc3cc(C4CN(C(C)=O)C4)c(F)cn23)cc(OC(F)F)c1C(=O)NC1CC1", "pIC50": "7.00 to 8.00"}
{"compound": "COc1cc(-c2cnc3cc(C(C)(C)CO)ccn23)cc(OC(F)F)c1C(=O)NC1CC1", "pIC50": "8.00 to 11.00"}
{"compound": "COc1cc(-c2cnc3cc(C4CN(C(=O)OC(C)(C)C)C4)ccn23)cc(OC(F)F)c1C(=O)NC1CC1", "pIC50": "8.00 to 11.00"}
{"compound": "COc1cc(-c2cnc3cc(C4COCCN4C(=O)OC(C)(C)C)ccn23)cc(OC(F)F)c1C(=O)NC1CC1 (centres unmarked)", "pIC50": "< 6.30"}

Consider COc1cc(-c2cnn3cc(C4(C#N)CC4)ccc23)cc(OC(F)F)c1C(=O)N[C@@H]1C[C@@H]1F . Its measured pIC50 is 8.00 to 11.00

----------
Molecular target: SIK3 (Homo sapiens)
Construct: purchased SignalChem S12-11G-100
Assay: ADP-Glo kinase assay, SIK3
Type: biochemical
pIC50: −log10 of the molar value.
measured.quantity: pIC50

Examples with their reported pIC50 follow.
{"compound": "COc1cc(-c2cnn3cc(C(C)(C)CO)ccc23)cc(OC(F)F)c1C(=O)NC1CC1", "pIC50": "7.00 to 8.00"}
{"compound": "COc1cc(-c2cnc3cc(C4CCCN4C(=O)OC(C)(C)C)ccn23)cc(OC(F)F)c1C(=O)NC1CC1 (stereo not shown)", "pIC50": "7.00 to 8.00"}
{"compound": "[2H]C([2H])([2H])C(C#N)(c1ccn2c(-c3cc(OC)c(C(=O)NC4CC4)c(OC(F)F)c3)cnc2c1)C([2H])([2H])[2H]", "pIC50": "8.00 to 11.00"}
{"compound": "COc1cc(-n2cnc3cc(C(C)(C)C#N)ccc32)cc(OC)c1C(=O)NCC(F)(F)F", "pIC50": "6.30 to 7.00"}
{"compound": "COc1cc(-c2cnc3cc(C(C)(C)C#N)ccn23)cc(OC(F)F)c1C(=O)NC(C)C1CC1 (stereo not shown)", "pIC50": "6.30 to 7.00"}
{"compound": "COC(=O)C1(c2ccn3c(-c4cc(OC)c(C(=O)NC5CC5)c(OC(F)F)c4)cnc3c2)CC1", "pIC50": "8.00 to 11.00"}
{"compound": "CCC(CC)(OC)c1ccn2c(-c3cc(OC)c(C(=O)NC4CC4)c(OC(F)F)c3)cnc2c1", "pIC50": "7.00 to 8.00"}
{"compound": "COc1cc(-c2cnc3cc(C4(C#N)CCOC4)ccn23)cc(OC(F)F)c1C(=O)NC1CC1 (stereo not shown)", "pIC50": "7.00 to 8.00"}
{"compound": "COc1cc(-c2cnn3cc(C(C)(C)C#N)ccc23)cc(OCCO)c1C(=O)NC1CC1", "pIC50": "6.30 to 7.00"}
{"compound": "COc1cc(-c2cnc3cc(C(F)(F)C(=O)O)ccn23)cc(OC(F)F)c1C(=O)NC1CC1", "pIC50": "8.00 to 11.00"}

Reported pIC50 for COc1cn2c(-c3cc(OC)c(C(=O)NC4CC4)c(OC(F)F)c3)cnc2cc1C1CCOCC1 was 7.00 to 8.00

For COc1cc(-c2cnn3cc(C(C)(C)COCC(=O)N(C)C)ccc23)cc(OC(F)F)c1C(=O)N[C@@H]1C[C@@H]1F the compound record lists pIC50 as 8.00 to 11.00

Per the record, COc1cc(-c2cnc3cc(C(C)(C#N)CO)ccn23)cc(OC(F)F)c1C(=O)NC1CC1 (stereo not shown) has pIC50 of 7.00 to 8.00

Record summary for COc1cc(-c2cnc3cc(C(C)(C)C#N)ccn23)cc(OC(F)F)c1C(=O)N1CC(C(F)(F)F)C1 : reported pIC50 = 8.00 to 11.00

# pIC50 (compound: COc1cc(-c2cnn3cc(C4(NCC(F)F)CCC4)ccc23)cc(OC(F)F)c1C(=O)N[C@@H]1C[C@@H]1F ) is 7.00 to 8.00

Quick note, pIC50 for COc1cc(-c2cnc3cc(C4CCC4)c(F)cn23)cc(OC(F)F)c1C(=O)NC1CC1 landed at 8.00 to 11.00

// pIC50 lookup, compound = COc1cc(-c2cnc3cc(C4CCOCC4)c(F)cn23)cc(OC(F)F)c1C(=O)NC1CC1 , result: 8.00 to 11.00

Field pIC50 (entry COc1cc(-c2cnn3cc(C(C)(C)C#N)ccc23)cc(OC(F)F)c1C(=O)NC1CC1 ) reads 7.00 to 8.00

// recorded pIC50 for COc1cc(-c2cnn3cc(C(C)(C)NCCO)ccc23)cc(OC(F)F)c1C(=O)N[C@@H]1C[C@@H]1F : 7.00 to 8.00

According to the records, this compound COc1cc(-c2cnc3cc(C(C)(C)C#N)ccn23)cc(OC(F)F)c1C(=O)NC(C1CC1)C(F)(F)F (stereo not shown) displays pIC50 of < 6.30

In plain terms, COc1cc(-c2cnc3cc(C(C)(C)C#N)ccn23)cc2c1C(=O)N(CC(F)(F)F)CC2 has a documented pIC50 of 7.00 to 8.00

So, COc1cc(-c2cnn3cc(C(C)(C)N)ccc23)cc(OC(F)F)c1C(=O)N[C@@H]1C[C@@H]1F ? Its pIC50 was 8.00 to 11.00

pIC50 measured on COc1cc(-c2cnc3cc(C(C)(C)N)ccn23)cc(OC)c1C(=O)NCC(F)(F)F = 7.00 to 8.00

Note to self: pIC50 recorded for COc1cc(-c2cnc3cc(C(C)(C)C#N)ccn23)cc(OC)c1C(=O)NCC(F)(F)F was 7.00 to 8.00

For reference, reported pIC50 for COc1cc(-c2cnc3cc(C(C)(C)C#N)ccn23)cc(OC(F)F)c1C(=O)NCC1CCOC1 (stereo not shown) stands at 6.30 to 7.00
